Data provenance is patent US20250215039A1.

System: cancer cell lines
assay_method_text: Cancer cell proliferation activity (CellTiterGlo, 72 h)
Format: cell-based
condition_notes: Homo sapiens, NCI-H82, 72 h, NCIH82 (lung), 72 h; read-out: IC50 cell proliferation
Protocol: Dose response relationships on cell proliferation was assessed for representative Compounds of the Disclosure on cancer cell lines. […] Cells were cultured in the appropriate media. […] After incubation for 72 h at 37° C. at 5% or 10% CO2 dependent on the medium, cell plates were equilibrated to room temperature for one hour, CellTiterGlo reagent (Promega) was added and luminescence was measured approximately an hour later using a luminometer. […]
observation_type: IC50 (nM)

[a] Nc1nc(F)nc2c1ncn2[C@H]1C[C@H](O)[C@@H](CO)O1
[b] Nc1nc(=O)n([C@H]2C[C@H](O)[C@](CO)(CF)O2)cc1F
[c] C[C@]1(CO)O[C@@H](n2ccc(N)nc2=O)[C@@H](O)[C@@H]1O
[d] CCC[C@]1(CO)O[C@@H](n2cnc3c(N)nc(F)nc32)[C@H](O)[C@@H]1O
[e] Nc1nc(=O)n([C@H]2C[C@H](O)[C@@H](CO)O2)cc1F
Rank ascending by IC50. # respond with the labels, arranged in the requested order
e, b, d, a, c
(e: 6 nM, b: 87 nM, d: 170 nM, a: 1600 nM, c: 3370 nM)

----------
Test system: cancer cell lines
assay_method_text: Cancer cell proliferation activity (CellTiterGlo, 72 h)
Format: cell-based
condition_notes: Homo sapiens, MG-63, 72 h, MG63 cell line (bone), 72 h; read-out: IC50
observation_type: IC50 (µM)

[A] O=c1[nH]c(=O)n([C@H]2C[C@H](O)[C@](CO)(CF)O2)cc1F
[B] Nc1ccn([C@@H]2O[C@H](CO)[C@@H](O)C2(F)F)c(=O)n1 [gemcitabine, reference compound]
// select label with min value of measured IC50 from [ A , B ] # answer = label of selected item
B
(B: 0.0048 µM, A: 4.7 µM)

----------
Tested on: cancer cell lines
assay_method_text: Cancer cell proliferation activity (CellTiterGlo, 72 h)
Type: cell-based
condition_notes: Homo sapiens, HEK293, 72 h, HEK293 (kidney), 72 h; read-out: IC50 cell proliferation
pIC50: −log10 of the molar value.
observation_type: pIC50

compound	pIC50
Nc1nc(F)nc2c1ncn2[C@@H]1O[C@H](CO)[C@@H](O)[C@@H]1O [compound 170]	4.45
Nc1nc(F)nc2c1ncn2[C@@H]1O[C@H](CO)[C@@H](O)[C@H]1O [compound 184]	7.30

[P] CCC[C@]1(CO)O[C@@H](n2cnc3c(N)nc(F)nc32)[C@H](O)[C@@H]1O [compound 195]
[Q] C[C@]1(CO)O[C@@H](n2cnc3c(N)nc(F)nc32)[C@H](O)[C@@H]1O [Cpd. No. 178]
[R] Nc1nc(=O)n([C@H]2C[C@H](O)[C@@H](CO)O2)cc1F [compound 169]
[S] Nc1nc(F)nc2c1ncn2[C@H]1C[C@H](O)[C@@H](CO)O1 [compound 171]
Arrange the 4 entries by pIC50 so the values rise. To answer, arrange all of the labels according to the requested order.
S, P, Q, R

----------
System: cancer cell lines
assay_method_text: Cancer cell proliferation activity (CellTiterGlo, 72 h)
Format: cell-based
condition_notes: Homo sapiens, ACHN, 72 h, ACHN (kidney), 72 h; read-out: IC50 cell proliferation
pIC50: −log10 of the molar value.
observation_type: pIC50

Here are 4 compounds together with their reported answers.
1) Nc1nc(F)nc2c1ncn2[C@@H]1O[C@H](CO)[C@@H](O)[C@@H]1O 4.90
2) C[C@]1(CO)O[C@@H](n2ccc(N)nc2=O)[C@@H](O)[C@@H]1O 5.55
3) C[C@]1(CO)O[C@@H](n2ccc(N)nc2=O)C(F)(F)[C@@H]1O 5.55
4) Nc1nc(F)nc2c1ncn2[C@H]1C[C@H](O)[C@@H](CO)O1 5.98

[P] C[C@]1(CO)O[C@@H](n2cnc3c(N)nc(F)nc32)[C@H](O)[C@@H]1O
[Q] C#C[C@]1(CO)O[C@@H](n2cc(Cl)c(N)nc2=O)C[C@@H]1O
[R] Nc1nc(=O)n([C@H]2C[C@H](O)[C@@H](CO)O2)cc1F
In this exercise, place the 3 compounds in ascending sequence of their recorded pIC50. Dear reader, please state the labels in the requested order.
Q, P, R
(Q: 5.90, P: 6.34, R: 8.52)
